Please provide measured log10(IC50) for the entries that follow.
# experimental.system: human GluN1/GluN2B NMDA receptors (Homo sapiens, UniProt Q05586+Q13224)
# Sequence (Q13224 27-1484, other chains not shown): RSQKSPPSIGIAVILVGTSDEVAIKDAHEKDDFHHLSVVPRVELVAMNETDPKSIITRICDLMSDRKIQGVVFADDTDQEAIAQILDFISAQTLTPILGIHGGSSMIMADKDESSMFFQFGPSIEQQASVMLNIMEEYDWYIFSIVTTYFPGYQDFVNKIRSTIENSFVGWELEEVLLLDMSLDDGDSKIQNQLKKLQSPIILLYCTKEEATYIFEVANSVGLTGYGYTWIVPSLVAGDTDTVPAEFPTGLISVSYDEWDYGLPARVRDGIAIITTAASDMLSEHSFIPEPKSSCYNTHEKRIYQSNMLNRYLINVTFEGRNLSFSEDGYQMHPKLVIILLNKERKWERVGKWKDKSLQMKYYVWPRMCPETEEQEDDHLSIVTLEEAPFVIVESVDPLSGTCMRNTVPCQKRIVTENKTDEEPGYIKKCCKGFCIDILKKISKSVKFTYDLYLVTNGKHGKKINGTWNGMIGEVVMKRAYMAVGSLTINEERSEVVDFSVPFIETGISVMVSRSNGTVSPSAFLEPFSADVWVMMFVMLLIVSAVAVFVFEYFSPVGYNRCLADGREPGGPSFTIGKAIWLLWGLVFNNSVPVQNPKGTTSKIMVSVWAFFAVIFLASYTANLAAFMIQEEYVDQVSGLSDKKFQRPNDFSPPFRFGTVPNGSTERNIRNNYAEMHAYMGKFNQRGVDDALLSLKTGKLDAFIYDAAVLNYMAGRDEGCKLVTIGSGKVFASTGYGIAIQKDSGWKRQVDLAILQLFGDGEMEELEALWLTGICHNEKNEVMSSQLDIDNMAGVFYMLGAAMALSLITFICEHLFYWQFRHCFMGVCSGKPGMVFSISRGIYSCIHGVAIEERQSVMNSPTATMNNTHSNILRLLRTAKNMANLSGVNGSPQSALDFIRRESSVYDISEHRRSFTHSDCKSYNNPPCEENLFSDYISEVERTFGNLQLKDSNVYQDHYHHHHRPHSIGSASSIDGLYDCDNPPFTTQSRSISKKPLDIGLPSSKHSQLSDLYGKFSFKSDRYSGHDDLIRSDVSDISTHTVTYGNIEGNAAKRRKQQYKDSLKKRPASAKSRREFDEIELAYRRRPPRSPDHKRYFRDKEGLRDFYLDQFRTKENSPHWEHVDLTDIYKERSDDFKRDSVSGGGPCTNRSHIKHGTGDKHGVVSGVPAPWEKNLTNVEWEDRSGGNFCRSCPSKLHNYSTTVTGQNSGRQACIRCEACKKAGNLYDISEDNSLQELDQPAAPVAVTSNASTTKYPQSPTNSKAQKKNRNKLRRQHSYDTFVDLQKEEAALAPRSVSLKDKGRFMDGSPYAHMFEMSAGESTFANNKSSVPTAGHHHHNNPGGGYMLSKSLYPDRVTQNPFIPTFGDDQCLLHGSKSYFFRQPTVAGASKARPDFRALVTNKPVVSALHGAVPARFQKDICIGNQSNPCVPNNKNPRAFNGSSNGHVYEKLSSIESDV
# test: Cell-based calcium flux (FLIPR) assay on cloned human NR1/NR2B ion channels expressed in mammalian cells
# stated.conditions: standard assay; glutamate at ~EC80; FLIPR calcium flux
# log10 transformed; quantity=IC50; unit=µM

Incoming: Dear colleague, I am looking for the recorded log10(IC50) of the following compound: Fc1ccc(-n2cc(COc3nccc(C(F)(F)F)n3)nn2)cc1C(F)F [Example 403]
Outgoing: -0.70

Incoming: Dear colleague, I am looking for the recorded log10(IC50) of the following compound: COc1cnc(OCc2cn(-c3ccc(F)cc3C)nn2)nc1 [Example 488]
Outgoing: 0.42

Below are some compounds; for each one, tell me its log10(IC50).
1. Cc1cnc(OCc2nnn(-c3cccc(C(F)F)c3)c2C)nc1C [Example 528]
2. COCc1ccnc(OCc2cn(-c3ccc(C)c(OC(F)F)c3)nn2)n1 [Example 527]
3. Fc1ccc(-n2cc(COc3ncc(N4CC(C(F)F)C4)cn3)nn2)cc1C(F)F [Example 421]
4. Fc1ccc(-n2cc(COc3ncc(C4CC4)cn3)nn2)cc1C(F)(F)F [Example 453]
5. Cc1nc(OCc2cn(-c3ccc(F)c(C(F)(F)F)c3)nn2)ncc1Cl [Example 444]
6. CC(F)(F)c1ccnc(OCc2cn(-c3ccc(F)c(C(F)F)c3)nn2)n1 [Example 696]

Outgoing:
[-0.12, -0.88, -0.64, -1.66, -1.89, -0.02]

Incoming: Dear colleague, I am looking for the recorded log10(IC50) of the following compound: COC1CN(c2cnc(OCc3cn(-c4ccc(F)c(C(F)F)c4)nn3)nc2)C1 [Example 418]
Outgoing: -0.57
